Notes on IC50 obtained with PI3Kα (Homo sapiens (Human), UniProt P42336).
Sequence (P42336 whole entry): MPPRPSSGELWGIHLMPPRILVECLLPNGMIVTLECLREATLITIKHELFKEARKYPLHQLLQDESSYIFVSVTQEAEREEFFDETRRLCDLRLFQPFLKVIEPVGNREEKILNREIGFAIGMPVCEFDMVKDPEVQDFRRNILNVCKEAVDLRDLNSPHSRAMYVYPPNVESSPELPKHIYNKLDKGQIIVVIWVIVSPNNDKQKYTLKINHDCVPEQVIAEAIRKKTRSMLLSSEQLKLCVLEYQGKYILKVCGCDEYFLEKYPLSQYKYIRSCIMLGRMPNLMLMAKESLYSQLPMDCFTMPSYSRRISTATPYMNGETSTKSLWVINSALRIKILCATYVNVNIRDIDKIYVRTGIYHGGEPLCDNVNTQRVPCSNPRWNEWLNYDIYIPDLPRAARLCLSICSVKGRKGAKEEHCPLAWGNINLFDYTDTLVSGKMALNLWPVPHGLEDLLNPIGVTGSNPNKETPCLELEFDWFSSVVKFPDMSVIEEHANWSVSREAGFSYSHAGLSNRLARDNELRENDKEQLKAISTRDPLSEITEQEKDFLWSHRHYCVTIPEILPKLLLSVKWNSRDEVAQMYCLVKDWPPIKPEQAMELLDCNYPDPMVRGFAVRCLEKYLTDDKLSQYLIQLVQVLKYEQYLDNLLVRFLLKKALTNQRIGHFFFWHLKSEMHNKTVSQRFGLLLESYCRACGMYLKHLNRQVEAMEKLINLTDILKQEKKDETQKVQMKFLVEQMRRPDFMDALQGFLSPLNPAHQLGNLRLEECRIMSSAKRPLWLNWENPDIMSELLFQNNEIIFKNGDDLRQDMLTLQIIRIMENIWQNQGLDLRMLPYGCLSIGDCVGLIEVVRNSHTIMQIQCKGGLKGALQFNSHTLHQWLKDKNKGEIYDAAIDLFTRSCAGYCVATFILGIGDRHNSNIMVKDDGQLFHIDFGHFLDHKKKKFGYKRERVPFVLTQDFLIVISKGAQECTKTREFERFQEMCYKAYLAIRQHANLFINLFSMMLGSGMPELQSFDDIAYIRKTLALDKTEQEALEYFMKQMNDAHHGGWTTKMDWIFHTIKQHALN
Sequence (P27986 whole entry partner): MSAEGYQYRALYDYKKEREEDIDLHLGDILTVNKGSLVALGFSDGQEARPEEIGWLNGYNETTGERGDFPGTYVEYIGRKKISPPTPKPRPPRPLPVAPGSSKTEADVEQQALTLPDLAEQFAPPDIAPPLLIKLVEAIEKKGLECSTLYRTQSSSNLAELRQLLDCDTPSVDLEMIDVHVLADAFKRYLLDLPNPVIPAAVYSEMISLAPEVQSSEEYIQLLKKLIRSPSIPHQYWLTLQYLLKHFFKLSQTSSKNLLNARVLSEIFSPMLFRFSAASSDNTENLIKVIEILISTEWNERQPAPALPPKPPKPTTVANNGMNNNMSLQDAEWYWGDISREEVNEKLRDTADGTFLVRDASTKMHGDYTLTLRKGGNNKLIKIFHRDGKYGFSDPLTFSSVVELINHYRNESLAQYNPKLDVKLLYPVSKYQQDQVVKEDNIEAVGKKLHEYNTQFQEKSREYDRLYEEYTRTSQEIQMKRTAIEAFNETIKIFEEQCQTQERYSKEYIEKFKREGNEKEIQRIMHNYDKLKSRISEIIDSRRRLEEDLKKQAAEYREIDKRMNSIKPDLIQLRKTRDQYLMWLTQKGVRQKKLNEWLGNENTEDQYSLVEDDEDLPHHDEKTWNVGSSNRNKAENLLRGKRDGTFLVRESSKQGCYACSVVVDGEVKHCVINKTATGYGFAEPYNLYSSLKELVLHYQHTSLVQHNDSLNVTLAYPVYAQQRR
metric: IC50 (nM)

Here's what some known entries look like.
{"columns": ["smilesInput", "targetEntity", "unitSymbol", "IC50"],
 "data": [
  ["Cc1sc2c(-c3cccc4[nH]ncc34)nc(N3CCOCC3)nc2c1CN1CCN(S(C)(=O)=O)CC1", "PI3Kα (Homo sapiens (Human), UniProt P42336)", "nM", 262],
  ["Cc1sc2c(-c3cnc(N)nc3)nc(N3CCOCC3)nc2c1CN1CCN(C(=O)[C@H](C)O)CC1", "PI3Kα (Homo sapiens (Human), UniProt P42336)", "nM", 18.9],
  ["Cc1sc2c(-c3cnc(N)nc3)nc(N3CCOCC3)nc2c1CN1CCN(C(=O)CO)CC1", "PI3Kα (Homo sapiens (Human), UniProt P42336)", "nM", 18],
  ["CS(=O)(=O)N1CCN(Cc2csc3c(-c4cccc5[nH]ncc45)nc(N4CCOCC4)nc23)CC1", "PI3Kα (Homo sapiens (Human), UniProt P42336)", "nM", 57]
]}

P. Cc1nc(N)ncc1-c1nc(N2CCOCC2)nc2c(CN3CCN(C(=O)[C@H](C)O)CC3)csc12
Q. Cc1sc2c(-c3cnc(N)nc3)nc(N3CCOCC3)nc2c1CN1CCN(CCO)CC1
R. Nc1ncc(-c2nc(N3CCOCC3)nc3ccoc23)cn1
S. CS(=O)(=O)N1CCN(Cc2csc3c(-c4ccc(N)nc4)nc(N4CCOCC4)nc23)CC1
Arrange these 4 compounds in increasing order of IC50. Provide the ranking by listing each label in its place in the requested order.
R, P, Q, S

----------
Molecular target: UniProt:O00329
metric: IC50 (nM)

{"columns": ["molecule", "unitSymbol", "IC50"],
 "data": [
  ["Cc1sc2c(-c3cnc(N)nc3)nc(N3CCOCC3)nc2c1CN1CCN(C(=O)[C@H](C)O)CC1", "nM", 8.3],
  ["Cc1nc(N)ncc1-c1nc(N2CCOCC2)nc2c(CN3CCN(S(C)(=O)=O)CC3)csc12", "nM", 28.3],
  ["Cc1nc(N)ncc1-c1nc(N2CCOCC2)nc2c(CN3CCN(C(=O)[C@H](C)O)CC3)csc12 [Compound 21]", "nM", 4.7]
]}

I. CC(C)(O)C1CCN(Cc2csc3c(-c4cnc(N)nc4)nc(N4CCOCC4)nc23)CC1
II. C[C@@H](O)C(=O)N1CCN(Cc2csc3c(-c4cnc(N)nc4)nc(N4CCOCC4)nc23)CC1
Which has the higher IC50, I or II ? Please indicate the selected item by its label.
I
(I: 65.4 nM, II: 31.9 nM)

1. CS(=O)(=O)N1CCN(Cc2csc3c(-c4cccc5[nH]ncc45)nc(N4CCOCC4)nc23)CC1
2. Nc1ncc(-c2nc(N3CCOCC3)nc3ccoc23)cn1
3. Cc1nc(N)ncc1-c1nc(N2CCOCC2)nc2c(CN3CCN(C(=O)[C@H](C)O)CC3)csc12 [Compound 22]
Rank descending by IC50. Provide the ranking by listing each label in its place in the requested order.
2, 1, 3

----------
Test system: U87-MG
Assay: Cell proliferation inhibition assay (MTT), U87-MG
Type: cell-based
Settings: 72 hrs
metric: IC50 (µM)

{"columns": ["compound", "metric", "unitSymbol", "observedResult"],
 "data": [
  ["CS(=O)(=O)N1CCN(Cc2csc3c(-c4cccc5[nH]ncc45)nc(N4CCOCC4)nc23)CC1 [Compound 6]", "IC50", "µM", 7.41],
  ["Cc1nc(N)ncc1-c1nc(N2CCOCC2)nc2c(CN3CCN(S(C)(=O)=O)CC3)csc12 [Compound 11]", "IC50", "µM", 12.2],
  ["C[C@@H](O)C(=O)N1CCN(Cc2csc3c(-c4cnc(N)nc4)nc(N4CCOCC4)nc23)CC1 [Compound 19]", "IC50", "µM", 8.08],
  ["Cc1sc2c(-c3cnc(N)nc3)nc(N3CCOCC3)nc2c1CN1CCN(C(=O)[C@@H](C)O)CC1 [Compound 25]", "IC50", "µM", 11.3],
  ["CC(C)(O)C1CCN(Cc2csc3c(-c4cnc(N)nc4)nc(N4CCOCC4)nc23)CC1 [Compound 17]", "IC50", "µM", 7.81],
  ["C[C@H](O)C(=O)N1CCN(Cc2csc3c(-c4cnc(N)nc4)nc(N4CCOCC4)nc23)CC1 [Compound 18]", "IC50", "µM", 8.87],
  ["Cc1sc2c(-c3cnc(N)nc3)nc(N3CCOCC3)nc2c1CN1CCN(C(=O)[C@H](C)O)CC1 [Compound 24]", "IC50", "µM", 9.36]
]}

----------
Notes on IC50 obtained with PI3Kδ (Homo sapiens (Human), UniProt O00329).
Sequence (O00329 whole entry, one chain of several): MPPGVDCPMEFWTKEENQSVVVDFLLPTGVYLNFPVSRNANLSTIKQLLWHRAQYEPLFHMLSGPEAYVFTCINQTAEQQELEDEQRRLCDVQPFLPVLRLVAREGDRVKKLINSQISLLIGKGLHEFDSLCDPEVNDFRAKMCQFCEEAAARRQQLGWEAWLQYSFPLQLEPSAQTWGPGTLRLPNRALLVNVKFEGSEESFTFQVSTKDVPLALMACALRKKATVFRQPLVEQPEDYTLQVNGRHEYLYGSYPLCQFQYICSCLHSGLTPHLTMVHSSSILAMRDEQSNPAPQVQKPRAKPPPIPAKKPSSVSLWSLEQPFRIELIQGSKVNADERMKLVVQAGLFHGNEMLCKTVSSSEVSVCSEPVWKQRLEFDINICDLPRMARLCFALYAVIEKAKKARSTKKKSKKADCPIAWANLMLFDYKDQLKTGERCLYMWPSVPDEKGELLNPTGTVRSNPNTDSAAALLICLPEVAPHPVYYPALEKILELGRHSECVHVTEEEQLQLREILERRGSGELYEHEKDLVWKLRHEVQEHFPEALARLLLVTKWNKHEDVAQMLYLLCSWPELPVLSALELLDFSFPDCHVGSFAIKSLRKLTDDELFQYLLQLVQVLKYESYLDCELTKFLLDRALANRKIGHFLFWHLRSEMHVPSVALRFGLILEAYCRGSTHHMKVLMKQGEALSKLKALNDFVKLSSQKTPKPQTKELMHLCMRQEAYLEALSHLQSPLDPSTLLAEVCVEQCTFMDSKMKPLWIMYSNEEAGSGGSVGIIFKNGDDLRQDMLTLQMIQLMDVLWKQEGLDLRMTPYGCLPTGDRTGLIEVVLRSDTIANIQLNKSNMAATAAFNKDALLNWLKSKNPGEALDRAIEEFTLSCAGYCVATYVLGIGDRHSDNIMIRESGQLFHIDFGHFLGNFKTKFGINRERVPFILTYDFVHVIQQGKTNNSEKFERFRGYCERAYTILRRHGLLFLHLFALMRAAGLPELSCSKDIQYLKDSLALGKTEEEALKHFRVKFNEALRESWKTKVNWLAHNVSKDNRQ
Number in nM, nothing else.

Here's what some known entries look like.
{"columns": ["molecule", "unitSymbol", "observedResult"],
 "data": [
  ["Cc1sc2c(-c3cnc(N)nc3)nc(N3CCOCC3)nc2c1CN1CCN(C(=O)[C@@H](C)O)CC1 [Compound 25]", "nM", 13],
  ["Cc1sc2c(-c3cnc(N)nc3)nc(N3CCOCC3)nc2c1CN1CCN(CCO)CC1 [Compound 36]", "nM", 56]
]}

Okay, next one:
Fill in the recorded IC50 for this molecule, with PI3Kδ (Homo sapiens (Human), UniProt O00329) as test system: Cc1sc2c(-c3cnc(N)nc3)nc(N3CCOCC3)nc2c1CN1CCN(C(=O)CO)CC1 [Compound 29]
7
